# TARGET_DESC: T1, CADM1 extracellular domain expressed by the CHO-Flpln CADM1 cell line (human) (UniProt Q9BY67)
# T1 sequence: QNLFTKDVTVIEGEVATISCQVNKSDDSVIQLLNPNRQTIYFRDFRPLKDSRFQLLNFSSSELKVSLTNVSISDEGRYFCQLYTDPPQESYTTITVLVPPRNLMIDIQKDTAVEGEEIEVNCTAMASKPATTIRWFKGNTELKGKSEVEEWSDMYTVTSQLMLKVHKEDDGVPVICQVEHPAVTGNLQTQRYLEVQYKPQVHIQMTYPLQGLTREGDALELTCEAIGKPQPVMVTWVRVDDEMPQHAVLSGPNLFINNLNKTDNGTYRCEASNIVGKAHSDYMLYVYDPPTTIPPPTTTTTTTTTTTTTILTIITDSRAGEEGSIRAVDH
# ASSAY_PROTOCOL: flow cytometry, CHO-Flpln CADM1 cells
ATTRIBUTE_MEASURED: percent of cells bound (%)

1. Antibody-10 (antibody, V domains shown, also called AB10; AB 1 0) VH: EVQLLESGGGLVQPGGSLRLSCAASGFTFSMYTMSWVRQAPGKGLEWVSSIWSSGGKTSYADSVKGRFTISRDNSKNTLYLQMNSLRAEDTAVYYCAKESWYFDLWGRGTL VL: QYELTQDPAVSVALGQTVRITCQGHSLRSYYATWYQQKPGQAPVLVMYGENNRPSGIPDRFSGSSSGNTASLTITGAQAEDEADYYCNSRDNSGNHLVFGGGTNLTVL
99.8
